Target: IMPDH2 Tetramer (WT) (Homo sapiens, UniProt P12268)
Construct: the full-length protein (1-514); His tag (pHAT20 vector); made in house; host or cells: E. coli
Experiment: Filter binding assay, full-length protein
Conditions: Hill equation, 4 sites; read-out: B0.5
quantity-measured: Kd (µM)
Give bare numbers, in µM.

// sample `Nc1ncnc2c1ncn2[C@@H]1O[C@H](COP(=O)(O)OP(=O)(O)OP(=O)(O)O)[C@@H](O)[C@H]1O` , its Kd was 770

====

Target: recombinant á1â1γ2 heterotrimer (R531G) (Homo sapiens, UniProt Q9UGJ0, R531G)
Sequence (Q9UGJ0 whole entry R531G, one chain of several): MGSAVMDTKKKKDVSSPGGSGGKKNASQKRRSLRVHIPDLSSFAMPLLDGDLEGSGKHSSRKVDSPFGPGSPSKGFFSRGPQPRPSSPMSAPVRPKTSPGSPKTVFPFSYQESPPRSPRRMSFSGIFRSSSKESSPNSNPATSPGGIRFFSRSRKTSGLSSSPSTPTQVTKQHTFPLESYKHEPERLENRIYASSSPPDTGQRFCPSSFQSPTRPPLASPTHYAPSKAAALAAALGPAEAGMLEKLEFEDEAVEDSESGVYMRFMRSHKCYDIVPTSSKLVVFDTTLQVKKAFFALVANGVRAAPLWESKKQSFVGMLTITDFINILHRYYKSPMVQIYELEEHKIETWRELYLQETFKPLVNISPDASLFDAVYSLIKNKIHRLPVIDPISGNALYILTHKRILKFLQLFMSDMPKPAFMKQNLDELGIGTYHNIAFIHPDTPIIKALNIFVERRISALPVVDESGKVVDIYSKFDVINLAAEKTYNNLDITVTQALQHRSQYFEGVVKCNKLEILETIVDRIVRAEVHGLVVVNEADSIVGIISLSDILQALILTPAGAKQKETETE
Assay: AMPK heterotrimer kinase assay, activation by AMP
Settings: read-out: A0.5
quantity-measured: EC50

Value of EC50 reported for the compound Nc1ncnc2c1ncn2[C@@H]1O[C@H](COP(=O)(O)O)[C@@H](O)[C@H]1O [AMP, adenosine monophosphate] is > 100 µM

====

Kindly supply the reported Kd values for the records listed here.
Target: AMPK-γ2 CBS1-4 (R302Q) (Homo sapiens, UniProt Q9UGJ0, R302Q)
Construct: all four CBS domains (CBS1-4, residues 274-569)
Assay: Filter binding assay, GST-CBS domain fusion
Settings: two site Hill plot model; read-out: B0.5
Give bare numbers, in µM.

Nc1ncnc2c1ncn2[C@@H]1O[C@H](COP(=O)(O)O)[C@@H](O)[C@H]1O [AMP, adenosine monophosphate] :: 158

Attention now turns to another entry.
Kd recorded for this compound, `Nc1ncnc2c1ncn2[C@@H]1O[C@H](COP(=O)(O)OP(=O)(O)OP(=O)(O)O)[C@@H](O)[C@H]1O` , is 193

====

Target: recombinant á1â1γ2 heterotrimer (Lins) (Homo sapiens, UniProt Q9UGJ0, INS350L)
Sequence (Q9UGJ0 with tags, fused parts or gaps INS350L): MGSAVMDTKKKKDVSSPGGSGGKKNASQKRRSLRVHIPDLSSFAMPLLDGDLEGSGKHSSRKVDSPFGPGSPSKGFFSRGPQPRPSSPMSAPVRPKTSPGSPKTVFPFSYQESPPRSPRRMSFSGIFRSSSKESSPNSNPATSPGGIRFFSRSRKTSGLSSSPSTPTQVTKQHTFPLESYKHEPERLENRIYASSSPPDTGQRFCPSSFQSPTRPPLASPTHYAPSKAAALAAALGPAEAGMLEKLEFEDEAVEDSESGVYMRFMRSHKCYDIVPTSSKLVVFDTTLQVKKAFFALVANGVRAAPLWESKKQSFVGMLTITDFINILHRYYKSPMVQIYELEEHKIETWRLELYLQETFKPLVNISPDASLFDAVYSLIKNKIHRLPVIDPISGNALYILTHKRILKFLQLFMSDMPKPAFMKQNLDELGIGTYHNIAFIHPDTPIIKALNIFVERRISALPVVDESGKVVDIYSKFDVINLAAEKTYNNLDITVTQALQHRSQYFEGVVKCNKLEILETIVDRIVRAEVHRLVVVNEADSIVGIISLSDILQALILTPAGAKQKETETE
Assay: AMPK heterotrimer kinase assay, activation by AMP
Details: immunoprecipitated from CCL13 cells, slow lysis; read-out: A0.5
quantity-measured: pEC50
Numbers only, as −log10 of the molar value.

Reported recombinant á1â1γ2 heterotrimer (Lins) (Homo sapiens, UniProt Q9UGJ0, INS350L) pEC50 for item Nc1ncnc2c1ncn2[C@@H]1O[C@H](COP(=O)(O)O)[C@@H](O)[C@H]1O [AMP, adenosine monophosphate] was 5.05

====

Target: AMPK-γ2 CBS1-4 (R531G) (Homo sapiens, UniProt Q9UGJ0, R531G)
Construct: all four CBS domains (CBS1-4, residues 274-569); made in house; host or cells: E. coli BL21 (DE3)
Sequence (Q9UGJ0 274-569 R531G): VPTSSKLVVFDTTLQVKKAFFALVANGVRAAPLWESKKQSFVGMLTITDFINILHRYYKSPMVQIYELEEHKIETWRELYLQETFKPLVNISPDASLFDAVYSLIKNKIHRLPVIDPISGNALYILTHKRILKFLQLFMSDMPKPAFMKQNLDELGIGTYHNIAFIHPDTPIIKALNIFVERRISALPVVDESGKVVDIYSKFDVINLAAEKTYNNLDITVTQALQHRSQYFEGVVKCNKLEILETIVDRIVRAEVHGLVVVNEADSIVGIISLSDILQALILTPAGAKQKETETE
Test: Filter binding assay, GST-CBS domain fusion
Details: two site Hill plot model; read-out: B0.5
quantity-measured: Kd (µM)
Answers are plain numbers, in µM.

Nc1ncnc2c1ncn2[C@@H]1O[C@H](COP(=O)(O)OP(=O)(O)OP(=O)(O)O)[C@@H](O)[C@H]1O [ATP] :: 2550

Item: Nc1ncnc2c1ncn2[C@@H]1O[C@H](COP(=O)(O)O)[C@@H](O)[C@H]1O [AMP, adenosine monophosphate] | System: AMPK-γ2 CBS1-4 (R531G) (Homo sapiens, UniProt Q9UGJ0, R531G) | Kd: 2800

====

Target: recombinant á1â1γ2 heterotrimer (R302Q) (Homo sapiens, UniProt Q9UGJ0, R302Q)
Sequence (Q9UGJ0 whole entry R302Q): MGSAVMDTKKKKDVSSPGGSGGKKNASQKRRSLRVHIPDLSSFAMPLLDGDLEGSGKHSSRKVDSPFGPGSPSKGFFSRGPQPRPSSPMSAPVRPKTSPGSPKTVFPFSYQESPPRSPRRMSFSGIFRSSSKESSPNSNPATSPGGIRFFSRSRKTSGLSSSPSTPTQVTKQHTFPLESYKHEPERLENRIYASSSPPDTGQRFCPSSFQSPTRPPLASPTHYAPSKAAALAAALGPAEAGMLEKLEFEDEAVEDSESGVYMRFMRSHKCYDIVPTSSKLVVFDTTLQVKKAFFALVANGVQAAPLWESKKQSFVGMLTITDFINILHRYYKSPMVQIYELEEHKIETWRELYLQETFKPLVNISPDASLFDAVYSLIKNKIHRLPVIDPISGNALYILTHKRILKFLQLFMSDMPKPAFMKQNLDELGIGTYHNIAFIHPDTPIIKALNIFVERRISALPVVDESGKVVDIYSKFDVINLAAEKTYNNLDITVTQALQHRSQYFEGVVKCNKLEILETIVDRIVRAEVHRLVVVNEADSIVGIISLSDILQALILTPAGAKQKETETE
Sequence (P54645 whole entry partner): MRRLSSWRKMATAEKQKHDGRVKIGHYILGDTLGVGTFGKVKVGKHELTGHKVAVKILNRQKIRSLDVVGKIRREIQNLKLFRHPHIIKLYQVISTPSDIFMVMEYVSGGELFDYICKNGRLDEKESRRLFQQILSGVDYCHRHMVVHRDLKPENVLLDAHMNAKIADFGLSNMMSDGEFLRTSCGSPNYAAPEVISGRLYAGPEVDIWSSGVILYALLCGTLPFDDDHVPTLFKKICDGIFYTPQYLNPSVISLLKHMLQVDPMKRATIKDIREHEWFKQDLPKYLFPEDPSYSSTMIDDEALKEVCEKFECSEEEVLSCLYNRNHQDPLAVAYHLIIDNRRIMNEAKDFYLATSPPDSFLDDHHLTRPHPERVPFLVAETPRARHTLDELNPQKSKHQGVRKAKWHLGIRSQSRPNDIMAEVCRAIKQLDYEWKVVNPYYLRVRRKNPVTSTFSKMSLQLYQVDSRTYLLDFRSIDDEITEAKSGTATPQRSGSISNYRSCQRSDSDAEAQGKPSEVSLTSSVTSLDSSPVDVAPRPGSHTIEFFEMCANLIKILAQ
Sequence (P80386 whole entry partner): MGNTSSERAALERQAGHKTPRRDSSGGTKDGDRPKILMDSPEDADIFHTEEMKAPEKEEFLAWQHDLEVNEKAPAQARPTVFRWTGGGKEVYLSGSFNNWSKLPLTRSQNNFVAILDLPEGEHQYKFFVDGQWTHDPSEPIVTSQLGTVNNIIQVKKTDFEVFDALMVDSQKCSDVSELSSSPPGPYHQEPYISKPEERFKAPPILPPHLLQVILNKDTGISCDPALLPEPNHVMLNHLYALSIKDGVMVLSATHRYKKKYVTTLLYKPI
Experiment: AMPK heterotrimer kinase assay, activation by AMP
Details: immunoprecipitated from CCL13 cells, slow lysis; read-out: A0.5
quantity-measured: pEC50
One number for each entry, as −log10 of the molar value.

For record Nc1ncnc2c1ncn2[C@@H]1O[C@H](COP(=O)(O)O)[C@@H](O)[C@H]1O [AMP, adenosine monophosphate] the listed pEC50 is 4.64
